System: polyphenol oxidase (PPO) from sickleweed
Assay: Inhibition of PPO purified from sickleweed, 4-methylcatechol substrate
Type: biochemical, Falcaria vulgaris Bernh.
Settings: substrate 4-methylcatechol; optimum conditions
property: pIC50
By convention, pIC50 is the negative base-10 log of a molar concentration.

Below: 2 molecules and their reported pIC50.
INSERT INTO assay_data (molecule, system_under_test, reported_value) VALUES
  ('O=C(O)CC(O)(CC(=O)O)C(=O)O', 'polyphenol oxidase (PPO) from sickleweed', 1.50),
  ('O=S(O)S(=O)(=O)O [Sodium metabisulfite, sodium metabisulfite]', 'polyphenol oxidase (PPO) from sickleweed', 4.57);

We next turn to a different molecule, shown below.
For record O=C1O[C@H]([C@@H](O)CO)C(O)=C1O the listed pIC50 is 4.59

Entry source: paper PMC12735778
